- Tested on: BT-549 breast
- assay info: NCI-60 one-dose screen, 48 h (100 = growth as untreated, 0 = no growth, -100 = all killed)
- cond: 10 µM unless noted
- Experimental: Growth inhibition of the BT-549 human tumor cell line is measured as a screen for anti-cancer activity. Cells are grown in 96 well plates and exposed to the test compound for 48 hours. Compounds are tested at a single concentration, which is 10^-5 M for most compounds. The reported endpoint is percent growth (GI% or GIPRCNT), where numbers from 0 - 100% represent growth inhibition, and numbers from -100% - 0 represent cell death. For example, a value of 40 represents 60% growth inhibition. […]
About 83,000 compounds went through this panel and 20% of them were active in at least one assay; those are over-represented in the sample as a whole.
Response key: 1 means growth >= 80%; -1 means growth < 80%.

# compound, system name, assigned category
rows = [
    ("CCOc1ccc(-c2nonc2NC(=O)c2cccc(C)c2)cc1OCC", "BT-549 breast", -1),
    ("C=C(C)CCC(C)N1CCC(N2CCC(C(=O)NCCc3ccccc3)CC2)CC1 (stereo unspecified)", "BT-549 breast", -1),
    ("CNCCNc1nc2ccccc2c2c(=O)c3cc(OC)ccc3sc12", "BT-549 breast", -1),
    ("Cc1c(-c2noc(-c3ccc([N+](=O)[O-])cc3)n2)no[n+]1[O-]", "BT-549 breast", 1),
    ("COc1cc(/C=C2\\CN(C)C/C(=C\\c3cc(CN4CCCCC4)c(O)c(OC)c3)C2=O)cc(CN2CCCCC2)c1O", "BT-549 breast", -1),
    ("O=C1C(=O)c2c(ccc3ccccc23)-c2ccccc21", "BT-549 breast", -1),
    ("COc1ccc(-c2nsc3c2NC(=O)CC3c2ccsc2)cc1 (stereo unspecified)", "BT-549 breast", -1),
    ("Cc1nc(Nc2cn[nH]c2C(=O)Nc2ccc(CN3CCN(C)CC3)cc2)c2ccsc2n1", "BT-549 breast", 1),
    ("Cc1c(C(=O)OCCO)cc(-c2ccc(Cl)cc2)n1-c1ccc(Cl)cc1Cl", "BT-549 breast", 1),
    ("NC1(N2SC(S)=C3CCCC=C32)CCCCC1", "BT-549 breast", 1),
    ("Oc1c(CN2CCN(c3ccccc3F)CC2)cc(Br)c2cccnc12", "BT-549 breast", -1),
]

====

- Test system: IGROV1 ovarian
- assay info: NCI-60 one-dose screen, 48 h (100 = growth as untreated, 0 = no growth, -100 = all killed)
- cond: 10 µM unless noted
- Protocol: Growth inhibition of the IGROV1 human tumor cell line is measured as a screen for anti-cancer activity. Cells are grown in 96 well plates and exposed to the test compound for 48 hours. Compounds are tested at a single concentration, which is 10^-5 M for most compounds. The reported endpoint is percent growth (GI% or GIPRCNT), where numbers from 0 - 100% represent growth inhibition, and numbers from -100% - 0 represent cell death. For example, a value of 40 represents 60% growth inhibition. […]
This is part of a sample that, as a whole, favours compounds with a hit. Of some 83,000 tested, about 20% had one in any assay.
The threshold is 50%. Values of growth beneath it are tagged T; values meeting or exceeding it are tagged F.

# compound, assigned category
measured = [
    ("COc1ccc(C2=NN(/C=C3\\SC(=O)NC3=Nc3ccc(F)cc3)C(c3ccc(F)cc3)C2)cc1 (stereo not given)", "F"),
    ("O=C(NCc1ccco1)C1CN(c2ccc(Cl)cc2)N(c2ccc(Cl)cc2)C1=O (stereo not given)", "T"),
    ("O=C(O)c1cn(C2CC2)c2cc(N3CCN(C(=O)C[n+]4ccccc4)CC3)c(F)cc2c1=O", "F"),
    ("O=C1c2cc(Br)ccc2Oc2cc([N+](=O)[O-])ccc2N1c1ccc(I)cc1F", "F"),
    ("Cc1cc(Nc2ccc(OCc3ccccc3)cc2)nc2cc(O)ccc12", "F"),
    ("O=c1oc2ccc(-c3ccc(F)cc3F)cc2c(=O)n1-c1ccc(Cl)c(C(F)(F)F)c1", "T"),
    ("COc1cc(/C=C/C(=O)c2c(C)nc3ccccc3c2/C=C/c2ccccc2)cc(OC)c1OC", "T"),
    ("CCCCC(O)(c1ccc(Cl)cc1)C(CN1CCOCC1)c1ccc(Cl)cc1 (stereo not given)", "T"),
    ("CCCCCCc1cc2cc(-c3csc(/C=C/c4ccccc4)n3)c(=O)oc2cc1O", "T"),
    ("CCN1C(=O)N(CC)C2C1NC(=S)N2/N=C/C=C/c1ccccc1OC (stereo not given)", "T"),
    ("O=c1oc2ccc(I)cc2c(=O)n1-c1ccc(Br)cc1F", "T"),
    ("O=C(N/N=C/c1ccccc1O)C(=O)Nc1ccc(F)cc1", "F"),
    ("NCCCNc1nc2ccccc2c2c(=O)c3cc(F)ccc3sc12", "T"),
    ("O=C1CCC(N2C(=O)c3cccc(NCCCCCCOc4ccc(Nc5nccc(Nc6ccccc6)n5)cc4)c3C2=O)C(=O)N1 (stereo not given)", "F"),
    ("CN1C(=O)N(C)C2Nn3c(s/c(=C4\\C(=O)N(CCc5ccccc5)c5ccccc54)c3=O)=NC21 (stereo not given)", "F"),
    ("CCOc1cccc(/C=N/NC(=O)C(=O)Nc2cccc(C(F)(F)F)c2)c1O", "T"),
    ("O=c1c2cc(F)ccc2sc2c(NCCCNCCO)nc3ccc(Cl)cc3c12", "T"),
    ("COc1cc(CNC(=O)Cc2ccccc2)ccc1OCc1cn(-c2ccc(F)cc2)nn1", "F"),
    ("COc1ccc(Cn2c(Br)c3c(c2-c2cc(OC)c(OC)c(OC)c2)CCc2sc(NC(C)=O)nc2-3)cc1", "T"),
    ("CC1=C(C(=O)OCC2CCN(C(=O)OC(C)(C)C)CC2)[C@@H](c2cccc(C#N)c2)C2=C(CC(C)(C)CC2=O)N1", "T"),
]

Source of measurements: PubChem BioAssay (NCI)
